# Tested on: NCI-H226 lung
# ASSAY_PROCEDURE: NCI tumour cell line growth inhibition, 48 h; in the data active means GI50 below about 0.43 µM; inactive means the rest
Use one of these outcomes when replying: active, inactive

Q) Can you look up the reported call for "O=C(Oc1cccc2cccnc12)c1cc2c(cc1Cl)SC(N(c1ccc(F)cc1)S(=O)(=O)c1ccc(Br)s1)=NS2(=O)=O" for me?
A) inactive

Q) Can you look up the reported call for "O=c1c2c(=NCCN3CCCC3)cc3c(=O)n(CCCN4CCOCC4)c(=O)c4c(-c5ccc(CN6CCCC6)cc5)cc(c(O)n1CCCN1CCOCC1)c2c4-3" for me?
A) active

Q) Can you look up the reported call for "COc1ccc(/C=C/C(=O)c2cc(OC)c(OC)c(OC)c2)cc1OCC(=O)Nc1nc2ccc(OC(F)(F)F)cc2s1" for me?
A) inactive

Q) Can you look up the reported call for "CCOC(=O)c1cc(C(=O)c2cc(OC)c(OC)c(OC)c2)n2ncccc12" for me?
A) inactive

Q) Can you look up the reported call for "CCN(Cc1ccc(C)cc1)c1ccc(CO)c(Cl)c1" for me?
A) active

Q) Can you look up the reported call for "O=c1[nH]c2ccccc2c2ccccc12" for me?
A) inactive

Q) Can you look up the reported call for "CS(=O)(=O)Nc1cncc(-c2ccc3ncnc(Nc4ccc(F)c(Cl)c4)c3c2)c1" for me?
A) inactive

Q) Can you look up the reported call for "O=Nc1ccc(O)c(=O)cc1" for me?
A) inactive

Q) Can you look up the reported call for "O=C(Nc1ccc2[nH]nc(-c3ccncc3)c2c1)[C@@H]1CCN(CC(=O)N2CCN(c3ccc(-c4ncccn4)cc3)CC2)C1" for me?
A) inactive

Q) Can you look up the reported call for "CCOC(=O)c1ccc(NC(=O)Nc2nncs2)cc1" for me?
A) inactive
